Tested on: TTR
Test: TTR editing in primary human hepatocytes transfected with Spy Cas9 protein (RNP) loaded with dgRNAs (Table 8)
Format: cell-based
Details: dgRNA transfected with Spy Cas9 protein (RNP)
Rule: Avg % Deletion of 2% or more gives true; anything lower gives false.

Sequence input | Label
CUUCUCUACACCCAGGGCAC (tested as dual guide RNA, chemistry not given here) [CR003342] | false
UGCACGGCCACAUUGAUGGC (tested as dual guide RNA, chemistry not given here) [CR003349] | false
AGUGAGUCUGGAGAGCUGCA (tested as dual guide RNA, chemistry not given here) [CR003359] | true
GGAGUAGGGGCUCAGCAGGG (tested as dual guide RNA, chemistry not given here) [CR003382] | false

Q. Given ACGUGUCUUCUCUACACCCA (tested as dual guide RNA, chemistry not given here) [CR005302] , state whether its Avg % Deletion is at least 2%.
A. false

====

Recorded Avg % Edit for the following sequences
Test system: TTR
Test: TTR editing in primary cyno hepatocytes electroporated with Spy Cas9 protein and dgRNAs (Tables 10, 11)
Type: cell-based, cynomolgus monkey
Conditions: Table 10; primary cyno hepatocytes electroporated with Spy Cas9 protein (RNP) and dgRNAs
Entry rule: numbers only, all in %.

Sequence input | Measured metric | Value reported
AGUCCCUCAUUCCUUGGGAU (tested as dual guide RNA, chemistry not given here) [CR003392] | Avg % Edit | 7.02
ACACAAAUACCAGUCCAGCA (tested as dual guide RNA, chemistry not given here) [CR003339] | Avg % Edit | 8.95
UACUCACCUCUGCAUGCUCA (tested as dual guide RNA, chemistry not given here) [CR003372] | Avg % Edit | 2.15

Now take the following sequence into account.
Q. For the sequence shown here, AAAUAGACACCAAAUCUUAC (tested as dual guide RNA, chemistry not given here) [CR003366] , give the reported Avg % Edit.
A. 18.52

====

Recorded Avg % Deletion for the following sequences
System: TTR
Test: TTR editing in HEK293_Cas9 cells transfected with dgRNAs (Table 4)
Type: cell-based, human
Details: HEK293_Cas9 cells (constitutively express Spy Cas9) transfected with dgRNAs
Entry rule: numbers only, all in %.

Sequence input | Value reported
GGGAUUGGUGACGACAGCCG (tested as dual guide RNA, chemistry not given here) [CR003390] | 23.71
AAUAGGAGUAGGGGCUCAGC (tested as dual guide RNA, chemistry not given here) [CR003384] | 16.00
CAUUGAUGGCAGGACUGCCU (tested as dual guide RNA, chemistry not given here) [CR003347] | 20.50

Now take the following sequence into account.
Q. For the sequence shown here, GCUGCAUGGGCUCACAACUG (tested as dual guide RNA, chemistry not given here) [CR003361] , give the reported Avg % Deletion.
A. 25.78

====

Test system: TTR
Assay: TTR editing in primary human hepatocytes transfected with Spy Cas9 mRNA and dgRNAs (Table 9)
Assay type: cell-based
Settings: dgRNA co-transfected with Spy Cas9 mRNA (SEQ ID NO:2)
Rule: Avg % Insert of 10% or more gives yes; anything lower gives no.

Q. Given GACGACAGCCGUGGUGGAAU (tested as dual guide RNA, chemistry not given here) [CR003388] , state whether its Avg % Insert is at least 10%.
A. yes

Q. Given GGCCGUGCAUGUGUUCAGAA (tested as dual guide RNA, chemistry not given here) [CR005304] , state whether its Avg % Insert is at least 10%.
A. no

Q. Given AUACCAGUCCAGCAAGGCAG (tested as dual guide RNA, chemistry not given here) [CR003338] , state whether its Avg % Insert is at least 10%.
A. yes

Q. Given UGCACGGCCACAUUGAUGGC (tested as dual guide RNA, chemistry not given here) [CR003349] , state whether its Avg % Insert is at least 10%.
A. no

Q. Given GUGAGUCUGGAGAGCUGCAU (tested as dual guide RNA, chemistry not given here) [CR003360] , state whether its Avg % Insert is at least 10%.
A. yes

Q. Given UUCUUUGGCAACUUACCCAG (tested as dual guide RNA, chemistry not given here) [CR003357] , state whether its Avg % Insert is at least 10%.
A. yes

Q. Given AGACACCAAAUCUUACUGGA (tested as dual guide RNA, chemistry not given here) [CR003367] , state whether its Avg % Insert is at least 10%.
A. yes
